Assay: Solubility of salts in water and in 0.2 M phosphate buffer pH 6 at 37° C. after 4 hours (HPLC-DAD)
Format: physicochemical
Settings: 0.2 M phosphate buffer pH 6, 37° C., 4 hours
Experimental: Two sets of solubility experiments were performed. […] In the second set of solubility experiments about 5 mg of the salt was weighed in a standard 1.8 mL HPLC vial. Subsequently, aliquots of 200 μL of aqueous medium were added up to a maximum of 1 mL, while making observations regarding the dissolution behavior of the salts. […] The concentration of solute was determined by HPLC-DAD analysis. […] The pH was recorded at the end of the equilibration time.
property: Solubility in phosphate buffer (µg/mL)
# number only, unit µg/mL dropped from output

CN1CC[C@@H](c2c(O)cc(O)c3c(=O)cc(-c4ccc(C(F)(F)F)cc4Cl)oc23)[C@@H]1CO.CN1CC[C@@H](c2c(O)cc(O)c3c(=O)cc(-c4ccc(C(F)(F)F)cc4Cl)oc23)[C@@H]1CO.O=S(=O)(O)c1cccc2c(S(=O)(=O)O)cccc12 [Nds1a]	20
CN1CC[C@@H](c2c(O)cc(O)c3c(=O)cc(-c4ccc(C(F)(F)F)cc4Cl)oc23)[C@@H]1CO.O=C(O)CC(=O)O [Mao1]	70

Entry under test: CN1CC[C@@H](c2c(O)cc(O)c3c(=O)cc(-c4ccc(C(F)(F)F)cc4Cl)oc23)[C@@H]1CO.CN1CC[C@@H](c2c(O)cc(O)c3c(=O)cc(-c4ccc(C(F)(F)F)cc4Cl)oc23)[C@@H]1CO.O.O=C(O)C(=O)O [Oxa1] . Its Solubility in phosphate buffer was 30
